- experiment.description: Half life in rat plasma at 2 mg/kg, iv
- Format: ADME, organism-based
- Design: dose 2 mg/kg, route intravenous
readout.name: half-life (h)

INSERT INTO measurements (compound, readout_name, unit, val) VALUES
  ('Cc1nc(C(=O)C(C)Oc2ccc(SCc3ccc(Cl)cc3)cc2)sc1CCCC(=O)O (centres undefined)', 'half-life', 'h', 1.15);

A = Cc1nc(C(=O)C(C)Oc2ccc(OCCCCCc3ccccc3)cc2)sc1CCCC(=O)O (centres undefined)
B = Cc1nc(C(=O)COc2ccc(SCCCCCc3ccccc3)cc2)sc1CCCC(=O)O
*Q* Select one: A or B . Criterion: greater recorded half-life. Respond using the label that marks the chosen record.
*A* A
(A: 1.25 h, B: 0.2 h)

###

- experiment.description: Clearance in rat at 2 mg/kg, iv
- Type: ADME, organism-based
- Set-up: dose 2 mg/kg, route intravenous
- measurement.parameters: in vivo
readout.name: clearance (mL/min/kg)

INSERT INTO measurements (molecule, readout_name, val) VALUES
  ('Cc1nc(C(=O)C(C)Oc2ccc(SCc3ccc(Cl)cc3)cc2)sc1CCCC(=O)O (centres undefined)', 'clearance', 10.5);

P = Cc1nc(C(=O)C(C)Oc2ccc(OCCCCCc3ccccc3)cc2)sc1CCCC(=O)O (centres undefined)
Q = Cc1nc(C(=O)COc2ccc(SCCCCCc3ccccc3)cc2)sc1CCCC(=O)O
*Q* Select one: P or Q . Criterion: greater recorded clearance. Respond using the label that marks the chosen record.
*A* Q
(Q: 71 mL/min/kg, P: 10.5 mL/min/kg)
